B1: TRIM15 (parent)
chain: LSQMGAQSSGKILLCPLCQEEEQA

# Variants of: B1
# Protocol summary: protein stability index of a GFP-peptide fusion (GPS, HEK-293T) (PSI 1-6); higher = more stable;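 also: lentivirally expressed fusions sorted by FACS into six bins by GFP to DsRed ratio, PSI derived from sequencing read proportions per bin multiplied by bin number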
# Details: c terminus: a fixed tail appended
Endpoint label: protein stability index
Numbers only.

Study these solved cases before continuing.
Variant spec	protein stability index
L17F	3.23
A24K	4.51
E22P	2.56
A6Y	3.29

Below is a list of variants. For each, state its recorded protein stability index.
1. E20P
2. S2M
3. Q19W
4. P16A

3.75
3.58
2.78
2.92
